Source listed as patent US8309731B2.

Each entry below carries its reported solubility.
EXPERIMENTAL PROTOCOL: Solubility in toluene (Compound Properties, Table 1)
Assay type: physicochemical
APPLIED CONDITIONS: organic solvent or mixture
Express your answer in µg/mL, writing the number without its unit.

// solved cases for solubility follow
c1ccc(-c2cc(-c3ccc4ccccc4c3)nc3c2ccc2c(-c4ccccc4)cc(-c4ccc5ccccc5c4)nc23)cc1	1000
Fc1ccccc1-c1cc(-c2ccccc2)c2ccc3c(-c4ccccc4)cc(-c4ccccc4F)nc3c2n1	22200

Shifting focus to the compound that follows.
May I ask what solubility has been recorded for c1ccc(-c2cc(-c3ccc(-c4cccc5ccccc45)cc3)nc3c2ccc2c(-c4ccccc4)cc(-c4ccc(-c5cccc6ccccc56)cc4)nc23)cc1 ?
4500
